These measurements were taken from paper PMC12067350.

assay: Rat IV/PO pharmacokinetics; type: in vivo, Sprague-Dawley rat; details: plasma, male Sprague-Dawley rats, IV 1 mg/kg, PO 10 mg/kg, read-out: %F (oral bioavailability)
quantity: bioavailability (%)
One number for each entry, in %.

Problem: Tell me the measured bioavailability of Cc1csc(NC(=O)c2cc(O[C@@H]3CCOC3)cc(F)c2F)n1 [27cA] , please.
Solution: 17

---

molecular target: human mGlu5 (Homo sapiens); construct: expressed in transfected cells; test: Calcium mobilization assay in human mGlu5-HEK293A cells (NAM, EC80 glutamate); format: cell-based; settings: human mGlu5-HEK293A cells, EC80 fixed concentration of glutamate, n = 2 in triplicate; read-out: IC50
# IC50 binned as class A = under 0.2 µM, class B = from 0.2 µM up to 2 µM, class C = 2 µM and over

Example entries and their recorded answers appear below.
CCc1csc(NC(=O)c2cc(O[C@@H]3CCOC3)c3sccc3n2)n1 [19aH] : class C
O=C(Nc1nc(CF)cs1)c1cc(O[C@@H]2CCOC2)c2sccc2n1 [19aL] : class A
O=C(Nc1nc(C(F)F)cs1)c1cc(O[C@@H]2CCOC2)c2sccc2n1 [19aM] : class B

Please find the next molecule below.
Problem: Kindly identify the class of Cn1ccc2c(O[C@@H]3CCOC3)cc(C(=O)Nc3ccc(F)cn3)nc21 [19dB] .
Solution: class B

---

assay: Intrinsic clearance in rat liver microsomes; format: in vitro ADME; conditions: predicted hepatic clearance from in vitro rat microsomal data
Kindly state rat CLhep for each of the entries shown.

Before answering, review these 5 worked examples.
O=C(Nc1nc(CF)cs1)c1cc(O[C@@H]2CCOC2)c2sccc2n1 [19aL] : 41.8 mL/min/kg
Cc1csc(NC(=O)c2cc(O[C@@H]3CCOC3)c3sccc3n2)n1 [19aA] : 47.0 mL/min/kg
Cc1csc(NC(=O)c2cc(O[C@@H]3CCOC3)c3ccn(C)c3n2)n1 [19dA] : 52.3 mL/min/kg
Cc1cccc(NC(=O)c2cc(O[C@@H]3CCOC3)c3sccc3n2)n1 [19aD] : 57.5 mL/min/kg
Cc1csc(NC(=O)c2cc(OC3CC(C#N)C3)c3sccc3n2)n1 (stereo not drawn) [22i] : 48.2 mL/min/kg

Here is the next item to consider.
Problem: Tell me the measured rat CLhep of O=C(Nc1ccc(F)cn1)c1cc(O[C@@H]2CCOC2)c2sccc2n1 [19aB] , please.
Solution: 55.1 mL/min/kg

---

biological target: human mGlu5 (Homo sapiens, UniProt P41594); construct: expressed in transfected cells; assay: Calcium mobilization assay in human mGlu5-HEK293A cells (NAM, EC80 glutamate); assay type: cell-based; conditions: efficacy of the NAM to reduce an EC80 response of glutamate; human mGlu5-HEK293A cells
Sequence (P41594 21-1212): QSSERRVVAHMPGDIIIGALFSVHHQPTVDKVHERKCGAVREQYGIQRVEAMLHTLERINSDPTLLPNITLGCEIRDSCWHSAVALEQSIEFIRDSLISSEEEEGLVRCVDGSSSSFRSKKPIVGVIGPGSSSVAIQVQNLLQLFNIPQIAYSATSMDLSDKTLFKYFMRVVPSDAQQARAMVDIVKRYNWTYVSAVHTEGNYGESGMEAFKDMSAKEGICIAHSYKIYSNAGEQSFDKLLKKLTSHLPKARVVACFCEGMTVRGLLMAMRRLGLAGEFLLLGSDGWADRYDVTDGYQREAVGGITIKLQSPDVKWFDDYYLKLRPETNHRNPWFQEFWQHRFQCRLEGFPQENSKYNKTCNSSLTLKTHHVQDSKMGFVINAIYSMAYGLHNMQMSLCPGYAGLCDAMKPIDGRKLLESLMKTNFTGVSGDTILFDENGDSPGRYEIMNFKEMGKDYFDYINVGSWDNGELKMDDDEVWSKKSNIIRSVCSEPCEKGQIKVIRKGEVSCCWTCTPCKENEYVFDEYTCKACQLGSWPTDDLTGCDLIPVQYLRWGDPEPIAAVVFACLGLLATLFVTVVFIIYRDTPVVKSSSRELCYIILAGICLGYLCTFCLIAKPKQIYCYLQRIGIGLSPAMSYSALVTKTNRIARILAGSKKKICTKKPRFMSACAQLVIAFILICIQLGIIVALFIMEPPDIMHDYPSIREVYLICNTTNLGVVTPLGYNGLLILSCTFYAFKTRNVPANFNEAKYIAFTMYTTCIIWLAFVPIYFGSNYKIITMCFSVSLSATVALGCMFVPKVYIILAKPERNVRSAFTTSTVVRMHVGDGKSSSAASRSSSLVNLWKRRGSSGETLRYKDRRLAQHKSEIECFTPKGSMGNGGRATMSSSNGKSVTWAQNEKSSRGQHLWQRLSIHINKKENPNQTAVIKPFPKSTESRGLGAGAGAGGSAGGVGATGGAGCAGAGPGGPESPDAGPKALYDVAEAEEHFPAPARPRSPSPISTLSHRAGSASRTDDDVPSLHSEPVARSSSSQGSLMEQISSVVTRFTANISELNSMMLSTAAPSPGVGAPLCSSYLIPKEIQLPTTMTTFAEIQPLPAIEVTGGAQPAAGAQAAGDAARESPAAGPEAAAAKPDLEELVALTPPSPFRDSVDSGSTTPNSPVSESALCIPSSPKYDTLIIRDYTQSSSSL
quantity: %Glumin (%)
One number for each entry, in %.

Cc1csc(NC(=O)c2cc(O[C@@H]3CCOC3)c3sc(C)cc3n2)n1 [19cA] : 2
O=C(Nc1nc(CF)cs1)c1cc(O[C@@H]2CCOC2)c2sccc2n1 [19aL] : 2
Cc1nc(NC(=O)c2cc(O[C@@H]3CCOC3)c3sccc3n2)ccc1F [19aG] : 66
Cc1csc(NC(=O)c2cc(OC3CSC3)c3sccc3n2)n1 [22j] : 2

Report %Glumin for every entry below.
1. N#Cc1csc(NC(=O)c2cc(O[C@@H]3CCOC3)c3sccc3n2)n1 [19aN]
2. O=C(Nc1ccc(F)cn1)c1cc(O[C@@H]2CCOC2)c2ccncc2n1 [27gB]
3. Cc1csc(NC(=O)c2cc(O[C@@H]3CCOC3)c3ccncc3n2)n1 [27gA]
4. O=C(Nc1nc(C(F)F)cs1)c1cc(O[C@@H]2CCOC2)c2sccc2n1 [19aM]
5. CO[C@@H](C)COc1cc(C(=O)Nc2nc(C)cs2)nc2ccsc12 [22g]

Solution:
1. 3
2. 3
3. 2
4. 18
5. 12

---

biological target: human mGlu5 (Homo sapiens, UniProt P41594); construct: expressed in transfected cells; assay: Calcium mobilization assay in human mGlu5-HEK293A cells (NAM, EC80 glutamate); assay type: cell-based; conditions: human mGlu5-HEK293A cells, EC80 fixed concentration of glutamate, n = 2 in triplicate; read-out: IC50
quantity: IC50

Cc1coc(NC(=O)c2cc(O[C@@H]3CCOC3)c3sccc3n2)n1 [19aP] : > 10000 nM

Report IC50 for every entry below.
1. Cc1csc(NC(=O)c2cc(OC3CCOCC3)c3sccc3n2)n1 [22d]
2. Cc1csc(NC(=O)c2cc(O[C@@H]3CCOC3)c3ccccc3n2)n1 [19fA]
3. Cc1nsc(NC(=O)c2cc(O[C@@H]3CCOC3)c3sccc3n2)n1 [19aQ]
4. O=C(Nc1ccc(F)cn1)c1cc(O[C@@H]2CCOC2)c2ccncc2n1 [27gB]
5. O=C(Nc1cccc(F)n1)c1cc(O[C@@H]2CCOC2)c2sccc2n1 [19aC]
6. Cc1csc(NC(=O)c2cc(OC3COC3)c3sccc3n2)n1 [22e]
7. Cc1csc(NC(=O)c2cc(OC3CSC3)c3sccc3n2)n1 [22j]
8. O=C(Nc1ccc(F)cn1)c1cc(O[C@@H]2CCOC2)c2ccccc2n1 [19fB]

Solution:
["> 10000 nM", "192 nM", "> 10000 nM", "1780 nM", "1070 nM", "185 nM", "107 nM", "2650 nM"]

Report IC50 for every entry below.
1. Cc1csc(NC(=O)c2cc(O[C@@H]3CCOC3)c3ccncc3n2)n1 [27gA]
2. CO[C@@H](C)COc1cc(C(=O)Nc2nc(C)cs2)nc2ccsc12 [22g]
3. Cn1ccc2nc(C(=O)Nc3ccc(F)cn3)cc(O[C@@H]3CCOC3)c21 [19eB]
4. O=C(Nc1nccs1)c1cc(O[C@@H]2CCOC2)c2sccc2n1 [19aK]
5. Cc1csc(NC(=O)c2cc(O[C@@H]3CCOC3)c3ccn(C)c3n2)n1 [19dA]
6. Cc1nc(NC(=O)c2cc(O[C@@H]3CCOC3)c3sccc3n2)ccc1F [19aG]

Solution:
1: 2050 nM; 2: 682 nM; 3: > 10000 nM; 4: 1830 nM; 5: 93 nM; 6: > 10000 nM
